Origin of measurements: paper PMC2880318

Hi there, I'd appreciate the recorded IC50 for every entry that follows.
molecular target: purified HLA-DRB1*0101 (Homo sapiens, UniProt P01903+P01911, A100R/D57E/F55L/F60I/F76Y/I96L/L162R/M171V/P40L/Q125E/R42F/V115G/Y59C); assay: biochemical
Where a SMILES comes first, the peptide text is derived from it.
Value expressed in nM; do not type the unit.

Problem: Quote IC50 reported for CC[C@H](C)[C@H](NC(=O)[C@H](CC(C)C)NC(=O)[C@H](CCCNC(=N)N)NC(=O)[C@H](Cc1c[nH]cn1)NC(=O)[C@H](Cc1ccc(O)cc1)NC(=O)[C@H](CCC(=O)O)NC(=O)[C@H](CCC(N)=O)NC(=O)[C@@H](N)CC(=O)O)C(=O)N[C@@H](Cc1c[nH]cn1)C(=O)N[C@@H](CO)C(=O)N[C@@H](CC(C)C)C(=O)N[C@@H](CO)C(=O)N[C@@H](CCCCN)C(=O)N[C@H](C(=O)N[C@@H](CO)C(=O)O)[C@@H](C)O [GTOV L181-195] (H-DQEYHRLIHSLSKTS-OH) please.
Result: 0.34

Problem: Quote IC50 reported for CC(C)C[C@H](NC(=O)CNC(=O)[C@H](CC(C)C)NC(=O)[C@H](CO)NC(=O)[C@@H](NC(=O)[C@H](CC(C)C)NC(=O)[C@H](C)NC(=O)[C@H](CCC(N)=O)NC(=O)[C@@H](NC(=O)[C@@H](NC(=O)[C@H](CO)NC(=O)[C@@H](N)CC(N)=O)C(C)C)C(C)C)[C@@H](C)O)C(=O)N[C@@H](CC(C)C)C(=O)N[C@@H](Cc1ccc(O)cc1)C(=O)N[C@H](C(=O)O)[C@@H](C)O please.
Result: 0.78

* * *

molecular target: purified HLA-DRB1*0101 (Homo sapiens, UniProt P01903+P01911, A100R/D57E/F55L/F60I/F76Y/I96L/L162R/M171V/P40L/Q125E/R42F/V115G/Y59C); assay: biochemical
Where a SMILES comes first, the peptide text is derived from it.
property: log10(IC50) (log10 of the value in nM)
Base-10 log of IC50, unit nM.

Problem: Quote log10(IC50) reported for CC(C)[C@H](NC(=O)[C@H](C)NC(=O)[C@H](CCCCN)NC(=O)[C@@H]1CCCN1C(=O)[C@H](CCCCN)NC(=O)[C@@H](NC(=O)[C@H](C)NC(=O)[C@H](Cc1c[nH]c2ccccc12)NC(=O)[C@H](Cc1ccccc1)NC(=O)[C@H](Cc1ccccc1)NC(=O)[C@H](CC(N)=O)NC(=O)[C@H](CCCCN)NC(=O)[C@@H](N)CC(N)=O)C(C)C)C(=O)N[C@@H](CCCNC(=N)N)C(=O)N[C@@H](CCC(N)=O)C(=O)O [JUNV L1711-1725] please.
Result: -1.22

Problem: Quote log10(IC50) reported for CC[C@H](C)[C@H](NC(=O)[C@H](Cc1ccc(O)cc1)NC(=O)[C@@H](NC(=O)[C@H](CC(=O)O)NC(=O)[C@H](CCCNC(=N)N)NC(=O)[C@@H](NC(=O)[C@H](CCCNC(=N)N)NC(=O)[C@H](CCC(N)=O)NC(=O)[C@H](CO)NC(=O)[C@H](CC(C)C)NC(=O)[C@H](CC(C)C)NC(=O)CNC(=O)[C@H](CC(C)C)NC(=O)[C@@H](N)Cc1ccc(O)cc1)[C@@H](C)O)[C@@H](C)CC)C(=O)N[C@@H](CO)C(=O)O [LASV GPC241-255] please.
Result: -0.54

Problem: Quote log10(IC50) reported for CC[C@H](C)[C@H](NC(=O)[C@H](Cc1c[nH]cn1)NC(=O)[C@H](Cc1c[nH]cn1)NC(=O)[C@@H](NC(=O)[C@H](CCC(N)=O)NC(=O)[C@H](CC(N)=O)NC(=O)[C@H](C)NC(=O)[C@H](Cc1ccccc1)NC(=O)[C@H](C)NC(=O)[C@H](CCSC)NC(=O)[C@H](CC(C)C)NC(=O)[C@H](Cc1ccccc1)NC(=O)[C@H](Cc1ccc(O)cc1)NC(=O)[C@@H](N)CCCNC(=N)N)[C@@H](C)CC)C(=O)N[C@@H](CC(=O)O)C(=O)O [MACV L636-650] please.
Result: -0.62

Problem: Quote log10(IC50) reported for CC[C@H](C)[C@H](NC(=O)[C@H](CCC(=O)O)NC(=O)[C@H](CO)NC(=O)[C@H](CC(C)C)NC(=O)[C@@H](NC(=O)[C@@H](NC(=O)[C@H](CCCCN)NC(=O)[C@H](CCCNC(=N)N)NC(=O)[C@H](CC(C)C)NC(=O)[C@@H](N)Cc1c[nH]cn1)C(C)C)[C@@H](C)CC)C(=O)N[C@@H](CO)C(=O)N[C@@H](Cc1ccccc1)C(=O)N[C@@H](Cc1c[nH]cn1)C(=O)N[C@@H](CC(C)C)C(=O)N[C@H](C(=O)O)C(C)C [LCMV L946-960] (H-HLRKVILSEISFHLV-OH) please.
Result: 0.32

Problem: Quote log10(IC50) reported for CC(C)C[C@H](NC(=O)CNC(=O)[C@H](CC(C)C)NC(=O)[C@H](CO)NC(=O)[C@@H](NC(=O)[C@H](CC(C)C)NC(=O)[C@H](C)NC(=O)[C@H](CCC(N)=O)NC(=O)[C@@H](NC(=O)[C@@H](NC(=O)[C@H](CC(N)=O)NC(=O)[C@@H](N)CC(N)=O)C(C)C)C(C)C)[C@@H](C)O)C(=O)N[C@@H](CC(C)C)C(=O)N[C@@H](Cc1ccc(O)cc1)C(=O)N[C@H](C(=O)O)[C@@H](C)O [GTOV NP191-205] please.
Result: -0.54

Problem: Quote log10(IC50) reported for CC[C@H](C)[C@H](NC(=O)[C@H](C)NC(=O)[C@H](CCC(=O)O)NC(=O)[C@H](CC(C)C)NC(=O)[C@@H](NC(=O)[C@H](CC(=O)O)NC(=O)[C@H](CC(C)C)NC(=O)[C@H](CC(C)C)NC(=O)[C@@H](N)CCCNC(=N)N)[C@@H](C)CC)C(=O)N[C@@H](CCCCN)C(=O)N[C@@H](CC(C)C)C(=O)N[C@H](C(=O)N[C@@H](CCCNC(=N)N)C(=O)N[C@@H](CCCCN)C(=O)N[C@@H](CCCCN)C(=O)O)[C@@H](C)CC [JUNV L391-405] please.
Result: -0.32

Problem: Quote log10(IC50) reported for CC[C@H](C)[C@H](NC(=O)[C@H](CC(C)C)NC(=O)[C@H](CCCCN)NC(=O)[C@@H](NC(=O)[C@H](C)NC(=O)[C@H](CCC(=O)O)NC(=O)[C@H](CC(C)C)NC(=O)[C@@H](NC(=O)[C@H](CC(=O)O)NC(=O)[C@H](CC(C)C)NC(=O)[C@@H](NC(=O)[C@H](CCCNC(=N)N)NC(=O)[C@@H](N)CC(=O)O)C(C)C)[C@@H](C)CC)C(C)C)C(=O)N[C@@H](CCCNC(=N)N)C(=O)N[C@@H](CCCCN)C(=O)O [MACV L391-405] (H-DRVLDILEAVKLIRK-OH) please.
Result: -0.32

Problem: Quote log10(IC50) reported for CC[C@H](C)[C@H](NC(=O)[C@H](CC(=O)O)NC(=O)[C@H](CC(C)C)NC(=O)[C@H](CC(C)C)NC(=O)[C@H](CCCNC(=N)N)NC(=O)[C@H](CC(=O)O)NC(=O)[C@H](CC(N)=O)NC(=O)[C@@H](NC(=O)[C@H](CC(C)C)NC(=O)[C@H](CCSC)NC(=O)[C@H](CC(C)C)NC(=O)[C@H](CCSC)NC(=O)[C@H](CCC(N)=O)NC(=O)CNC(=O)[C@@H](N)C(C)C)C(C)C)C(=O)O [JUNV L381-395] please.
Result: -0.68

Problem: Quote log10(IC50) reported for CC[C@H](C)[C@H](NC(=O)[C@H](CC(C)C)NC(=O)[C@H](CO)NC(=O)[C@@H](N)C(C)C)C(=O)N[C@@H](C)C(=O)N[C@@H](C)C(=O)N[C@@H](CC(C)C)C(=O)N[C@@H](CCCCN)C(=O)NCC(=O)N[C@@H](CCSC)C(=O)N[C@H](C(=O)N[C@@H](CC(N)=O)C(=O)N[C@@H](CC(C)C)C(=O)N[C@@H](Cc1c[nH]c2ccccc12)C(=O)N[C@@H](CCCCN)C(=O)O)[C@@H](C)CC [SABV GPC26-40] (H-VSLIAALKGMINLWK-OH) please.
Result: -0.33
